Test system: rat central imidazoline I2 receptor
experimental-protocol: Central imidazoline I2 radioligand binding ([3H]Idazoxan)
test-conditions: compound at 1 μM; inhibition of specific [3H]Idazoxan binding
Hi there, I'd appreciate the recorded Imidazoline I2 Central (1 μM), Percentage Inhibition for every entry that follows.
Numbers only, in %.

Worked cases, Imidazoline I2 Central (1 μM), Percentage Inhibition given:
{"molecule": "Cc1ccc(CCn2c3c(c4cc(Cl)ccc42)C2CCC(C3)N2C)cc1 (stereo not drawn)", "output-unit": "%", "number": 22}
{"molecule": "Cc1ccc2c(c1)c1c(n2CCc2ccccc2)CC2CCC1N2C (stereo not drawn)", "output-unit": "%", "number": 70}

Then there is this molecule:
Entry CN1C2CCC1c1c(n(CCc3ccc(F)cc3)c3ccc(Cl)cc13)C2 (stereo not drawn) has what Imidazoline I2 Central (1 μM), Percentage Inhibition?
8

Measured values drawn from patent US8546381B2 for this set.
